# credit: PubChem BioAssay (NCI)

test system: HL-60(TB) leukemia; assay: NCI-60 one-dose screen, 48 h (100 = growth as untreated, 0 = no growth, -100 = all killed); details: 10 µM unless noted
About 83,000 compounds went through this panel and 20% of them were active in at least one assay; those are over-represented in the sample as a whole.
compounds and their reported growth
Give the value in % but do not write % after it.

As a guide, the following entries are already answered.
O=C(CSc1nnc(-c2ccc3nc(-c4ccc(Cl)cc4)[nH]c3c2)o1)Nc1ccc(Cl)cc1 ... -20.9
COc1ccc(N=Nc2c(N)nn3c(-c4cc5ccccc5oc4=O)ccnc23)cc1 ... 73.9
CCOC(=O)C1=C(N)N(c2ccccc2)C2=C(C(=O)CC(C)(C)C2)C1c1ccccc1OC (centres undefined) ... 99.2

Attention now turns to another entry.
Specify reported growth for the compound shown: C=C1CC[C@@H]2[C@]3(C)COC(c4cn[nH]c4-c4cccc(Br)c4)O[C@@H]3CC[C@@]2(C)[C@@H]1C/C=C1/C(=O)OCC1O (some centres undefined)
-16.3

---

tested on: T-47D breast; experiment: NCI-60 one-dose screen, 48 h; settings: 10 µM
About 83,000 compounds went through this panel and 20% of them were active in at least one assay; those are over-represented in the sample as a whole. The source made the active and inactive calls. Rule for the calls: active = growth percent below 10; inactive = the rest.
Hi! Could you answer with just one of these? true for active, false for inactive

N#C[Se]CC(=O)Nc1cccc(C(F)(F)F)c1 ... false
CC(C)N=C([Se])NC(=O)c1cccs1 ... false
O=C(/C=C/c1ccc(Cl)cc1Cl)c1nc2ccccc2n1Cc1ccc(F)cc1 ... false

Attention now turns to another entry.
Hello, I am checking results. What call was entered for CC1=C(CCC=NNC(N)=O)C2=C(C)C3(CC3)[C@@](C)(O)C(=O)C2=C1 ?
true

---

test system: HCC-2998 colon; test: NCI-60 one-dose screen, 48 h (100 = growth as untreated, 0 = no growth, -100 = all killed); settings: 10 µM
The panel holds about 83,000 compounds, 20% with a hit somewhere; the sample as a whole holds those more often.
Collected growth values appear next to each entry.
Give just the number in %; leave the unit off.

Use the examples below as a reference point.
COc1ccc(/C=C/C(=O)c2nc3ccccc3n2Cc2ccc(Br)cc2)cc1 ... 54.2
C[C@H]1[C@@H](Oc2ccc(-c3cn(-c4ccnc5cc(Cl)ccc45)nn3)cc2)O[C@@H]2OC3(C)CC[C@H]4[C@H](C)CC[C@@H]1[C@@]24OO3 ... 48.8
COC(=O)c1ccc(-n2cc(CCCN(CCNc3ccnc4cc(Cl)ccc34)C(=O)CCC(=O)O[C@@H]3O[C@@H]4OC5(C)CC[C@H]6[C@H](C)CC[C@@H]([C@H]3C)[C@@]46OO5)nn2)cc1 ... 49.5

Report measured growth; entry is O=C(NC([Se])=NC1CCCCC1)c1ccccc1
62.8

Look up and state reported growth for C[C@H]1[C@H](OC(=O)CCC(=O)N(CCCc2cn(-c3ccc([N+](=O)[O-])cc3)nn2)CCNc2ccnc3cc(Cl)ccc23)O[C@@H]2OC3(C)CC[C@H]4[C@H](C)CC[C@@H]1[C@@]24OO3
49.9

State its growth: CC12OOC(C)(OO1)C2CCC(=O)NCCNc1ccnc2cc(Cl)ccc12 (stereo unspecified)
99.7

---

tested on: SR leukemia; experiment: NCI-60 one-dose screen, 48 h (100 = growth as untreated, 0 = no growth, -100 = all killed); conditions: 10 µM
The panel holds about 83,000 compounds, 20% with a hit somewhere; the sample as a whole holds those more often.
Recorded growth, one value per entry.
Number in %, nothing else.

COc1ccc2cc([C@H](C)C(=O)[Se]CCC#N)ccc2c1 ... 0.13
COC(=O)CCn1c(-c2ccc(-n3cc(-c4ccc(O[C@H]5O[C@@H]6OC7(C)CC[C@H]8[C@H](C)CC[C@@H]([C@H]5C)[C@@]68OO7)cc4)nn3)cc2)nc2ccccc21 ... -11.8

Okay, next one:
Let me know recorded growth for CC(=O)Oc1ccccc1C(=O)[Se]C(=NC(C)C)NC(C)C , thanks.
-27.5

---

system: CCRF-CEM leukemia; assay: NCI-60 one-dose screen, 48 h; conditions: 10 µM
This is part of a sample that, as a whole, favours compounds with a hit. Of some 83,000 tested, about 20% had one in any assay. Activity calls are given as the source filed them. How the source made its calls: active means growth percent below 10; inactive means the rest.
Answer with one of the outcomes given here: 1 (yes) (active), 0 (no) (inactive)

Solved cases below.
CCOC(=O)C1=C(Nc2ccccc2)C(=O)OC12C(=O)Nc1ccccc12 (stereo not drawn) ... 0 (no)
O=C(/C=C/c1ccc(F)cc1)c1nc2ccccc2n1Cc1ccc(Br)cc1 ... 1 (yes)

Next:
Recorded test outcome, item COC(=O)C[C@](O)(CCC(C)C)C(=O)O[C@H]1C(OC)=C[C@@]23CCCN2CCc2cc4c(cc2[C@@H]13)OCO4
1 (yes)

---

tested on: TK-10 renal; test: NCI-60 one-dose screen, 48 h; details: 10 µM
The panel holds about 83,000 compounds, 20% with a hit somewhere; the sample as a whole holds those more often. Activity calls are given as the source filed them. How the source made its calls: active means growth percent below 10; inactive means the rest.
Log the outcome using a class from active, inactive

Some entries whose results are on file:
C[C@H]1[C@H](OC(=O)CCC(=O)Nc2cnccn2)O[C@@H]2OC3(C)CC[C@H]4[C@H](C)CC[C@@H]1[C@@]24OO3 ... inactive
CC1=C(CCC=O)C2=C(C)C3(CC3)[C@@](C)(O)C(=O)C2=C1 ... active
CC(C)N=C([Se])NC(=O)c1cccs1 ... inactive
C[C@H]1[C@@H](CC(=O)N[C@@H](Cc2coc3ccccc23)B(O)O)O[C@@H]2OC3(C)CC[C@H]4[C@H](C)CC[C@@H]1[C@@]24OO3 ... inactive
CC1=C(CCC=NNC(N)=O)C2=C(C)C3(CC3)[C@@](C)(O)C(=O)C2=C1 ... active

Which outcome was entered for the compound O=C(/C=C/c1cccc(Br)c1)c1nc2ccccc2n1Cc1ccc(Br)cc1 in this test?
inactive

Per the records of this test, what outcome belongs to O=C(/C=C/c1ccc(F)cc1)c1nc2ccccc2n1Cc1ccc(Br)cc1 ?
active

What outcome does the record of this test show for COc1cc2cc(C(=O)N3C[C@@H](CCl)c4c3cc(OC(=O)N3CCN(C)[C@@H]5CSSC[C@H]53)c3ccccc43)[nH]c2c(OC)c1OC ?
active

Tell me the assay call for O=C(/C=C/c1ccc(F)cc1)c1nc2ccccc2n1Cc1ccc(F)cc1 please.
inactive

Any idea what this test logged for COc1cc2cc(C(=O)N3C[C@@H](CCl)c4c3cc(OC(=O)N3CCN(C)[C@@H]5CSSC[C@@H]53)c3ccccc43)[nH]c2c(OC)c1OC ?
inactive

Please state the recorded outcome for this compound: CC12OOC(C)(OO1)C2CCC(=O)NCCCNc1ccnc2cc(Cl)ccc12 (centres undefined)
inactive

// return assay outcome for C#CCCCN(CCNc1ccnc2cc(Cl)ccc12)C(=O)CCC(=O)O[C@@H]1O[C@@H]2OC3(C)CC[C@H]4[C@H](C)CC[C@@H]([C@H]1C)[C@@]24OO3
inactive

Returns: the outcome recorded for CC[C@]12C=CCN3CC[C@@]4(c5ccc(OC)cc5N(C)[C@H]4[C@@](O)(C(=O)OC)[C@@H]1OC(=O)CCCC[P+](C1CCCCC1)(C1CCCCC1)C1CCCCC1)[C@@H]32 in this assay.
active

Tell me the assay call for COc1ccc(OC)c(/C=C/C(=O)c2nc3ccccc3n2Cc2ccc(F)cc2)c1 please.
inactive

Kindly provide the recorded test outcome for the following compound: CCOP(=O)(OCC)C(NC(C)=O)C(=O)SCCN (centres undefined)
inactive

Outcome logged for COC(=O)C[C@](O)(CCC(C)C)C(=O)O[C@H]1C(OC)=C[C@@]23CCCN2CCc2cc4c(cc2[C@@H]13)OCO4 in this assay:
active

Identify the outcome logged in this assay for the compound shown: CC[C@]12C=CCN3CC[C@@]4(c5ccc(OC)cc5N(C)[C@H]4[C@@](O)(C(=O)OC)[C@@H]1OC(=O)CCC[P+](c1ccc(F)cc1)(c1ccc(F)cc1)c1ccc(F)cc1)[C@@H]32
inactive

Assay outcome for C[C@H]1[C@@H](Oc2ccc(-c3cn(-c4ccnc5cc(Cl)ccc45)nn3)cc2)O[C@@H]2OC3(C)CC[C@H]4[C@H](C)CC[C@@H]1[C@@]24OO3 : what was it?
inactive

// param item: C=CC[Se]C(=O)c1cncc(C(=O)[Se]CC=C)c1 ; yields the recorded call
active

Hey, what did the test say about CC(=C\C(=O)Oc1ccc2c3c1OC1C(O)CCC4(O)C(C2)N(CC2CCC2)CCC314)/C=C1\CCCc2ccccc21 (centres undefined) ?
inactive

What classification did O=C(NCCCCC(c1ccc(F)cc1)c1ccc(F)cc1)Nc1ccc([N+](=O)[O-])c(C(F)(F)F)c1 end up with in this test?
inactive
